Numbers sourced from patent US11130778B2.

STUDY_TARGET: CD73 (Homo sapiens)
Sequence (P21589 27-549): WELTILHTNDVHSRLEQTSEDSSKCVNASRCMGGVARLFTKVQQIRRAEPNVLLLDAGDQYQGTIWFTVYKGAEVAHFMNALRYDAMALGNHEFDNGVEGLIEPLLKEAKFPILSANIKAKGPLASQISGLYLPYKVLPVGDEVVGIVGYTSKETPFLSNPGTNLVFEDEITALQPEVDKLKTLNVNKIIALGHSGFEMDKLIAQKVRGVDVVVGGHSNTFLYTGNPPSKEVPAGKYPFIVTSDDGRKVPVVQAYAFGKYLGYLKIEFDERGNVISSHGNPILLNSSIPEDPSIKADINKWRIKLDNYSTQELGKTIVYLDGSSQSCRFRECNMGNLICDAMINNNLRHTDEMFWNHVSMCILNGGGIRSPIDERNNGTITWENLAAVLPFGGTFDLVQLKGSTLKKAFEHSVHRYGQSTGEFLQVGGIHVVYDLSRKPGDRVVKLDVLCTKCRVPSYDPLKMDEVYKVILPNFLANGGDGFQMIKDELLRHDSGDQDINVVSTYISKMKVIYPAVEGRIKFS
MEASURED_METRIC: IC50

Use these answered entries as a reference point.
COCC(Cc1nn[nH]n1)(OC[C@H]1O[C@@H](n2ncc3c(NC(C)C)nc(Cl)nc32)[C@H](O)[C@@H]1O)P(=O)(O)O (stereo partly drawn) ... ≤ 10 nM
COCC(CC(=O)NS(=O)(=O)N(C)C)(OC[C@H]1O[C@@H](n2ncc3c(NC4CCCC4)nc(Cl)nc32)[C@H](O)[C@@H]1O)P(=O)(O)O (stereo partly drawn) ... ≤ 10 nM

Please examine the following record next.
Input line: Report its IC50 with CD73 (Homo sapiens) as the test system: O=c1[nH]c(C[C@@](CO)(OC[C@H]2O[C@@H](n3ncc4c(NC5CCCC5)nc(Cl)nc43)[C@H](O)[C@@H]2O)P(=O)(O)O)no1
Output line: ≤ 10 nM
